assay: In vitro flags for victim and perpetrator properties conferring DDI liability; format: in vitro ADME, human; details: in vitro flag, mainly based on in vitro determinations
measured_metric: Risk as a victim

CCCCN(CCCC)CC(O)c1cc(Cl)cc2c1-c1ccc(Cl)cc1/C2=C/c1ccc(Cl)cc1 (stereo not drawn) [Lumefantrine, lumefantrine]; Substrate of CYP3A4
C=C[C@H]1C[N@@]2CC[C@H]1C[C@H]2[C@H](O)c1ccnc2ccc(OC)cc12 [Quinine, quinine]; Substrate of CYP3A4
OC(c1cc(C(F)(F)F)nc2c(C(F)(F)F)cccc12)C1CCCCN1 (stereo not drawn) [Mefloquine, mefloquine]; Substrate of CYP3A4

====

target: CYP2C8 (Homo sapiens, UniProt P10632)
Sequence (P10632 whole entry): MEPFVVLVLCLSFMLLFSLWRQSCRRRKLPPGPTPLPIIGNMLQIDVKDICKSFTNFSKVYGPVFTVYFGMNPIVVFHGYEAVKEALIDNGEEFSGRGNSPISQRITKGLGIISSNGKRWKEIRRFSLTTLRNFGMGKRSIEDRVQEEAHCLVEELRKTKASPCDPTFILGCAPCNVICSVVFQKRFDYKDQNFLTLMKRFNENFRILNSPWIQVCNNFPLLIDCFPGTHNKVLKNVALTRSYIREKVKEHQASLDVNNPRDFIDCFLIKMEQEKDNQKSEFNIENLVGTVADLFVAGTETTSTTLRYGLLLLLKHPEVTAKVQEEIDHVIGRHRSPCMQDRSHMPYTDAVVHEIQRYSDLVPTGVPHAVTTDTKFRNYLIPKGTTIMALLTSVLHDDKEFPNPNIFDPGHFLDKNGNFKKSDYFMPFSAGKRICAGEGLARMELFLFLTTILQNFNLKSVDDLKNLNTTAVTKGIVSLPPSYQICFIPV
measured_metric: Ki (µM)
The reply should contain only the number, in µM.

[in] Which Ki is reported for this compound? CC(F)(F)c1nc2nc(CO)cc(Nc3ccc(S(F)(F)(F)(F)F)cc3)n2n1 [DSM450]
[out] 4.46

====

Item-by-item account of B:P
assay: Blood to plasma ratio (B:P); conditions: PBPK input; unpublished (in-house) data
Please reply with the number alone, leaving off any unit.

Examples with answers:
COc1ccc2nc3cc(Cl)ccc3c(Nc3cc(CN4CCCC4)c(O)c(CN4CCCC4)c3)c2n1; 1.5
Cc1cc(Nc2ccc(S(F)(F)(F)(F)F)cc2)n2nc(C(C)(F)F)nc2n1; 0.70
Clc1ccc2c(N3CCN(CCCN4CCN(c5ccnc6cc(Cl)ccc56)CC4)CC3)ccnc2c1; 0.9

Please look at the following molecule next.
[in] Which B:P is reported for this molecule? CS(=O)(=O)c1ccc(-c2cnc(N)c(-c3ccc(C(F)(F)F)nc3)c2)cc1
[out] 0.9

====

Item-by-item account of CLint CYP3A4
target: CYP3A4 (Homo sapiens, UniProt P08684); conditions: microsomes
Sequence (P08684 whole entry): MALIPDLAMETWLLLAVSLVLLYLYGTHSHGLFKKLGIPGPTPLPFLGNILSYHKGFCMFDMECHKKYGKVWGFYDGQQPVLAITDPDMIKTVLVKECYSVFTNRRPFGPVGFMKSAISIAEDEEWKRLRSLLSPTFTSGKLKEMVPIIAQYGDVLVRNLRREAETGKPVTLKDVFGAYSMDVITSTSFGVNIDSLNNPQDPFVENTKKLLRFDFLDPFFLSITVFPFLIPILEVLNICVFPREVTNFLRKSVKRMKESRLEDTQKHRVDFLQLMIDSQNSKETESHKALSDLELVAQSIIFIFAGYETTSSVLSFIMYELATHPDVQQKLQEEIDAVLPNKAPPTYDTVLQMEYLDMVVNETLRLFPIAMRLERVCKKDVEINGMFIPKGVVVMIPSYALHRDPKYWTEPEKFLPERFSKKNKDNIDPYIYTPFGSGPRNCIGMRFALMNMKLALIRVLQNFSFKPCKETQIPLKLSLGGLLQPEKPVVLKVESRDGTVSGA
Param answer (str): number followed by unit.

OC(c1cc(C(F)(F)F)nc2c(C(F)(F)F)cccc12)C1CCCCN1 (centres unmarked) [Mefloquine, mefloquine]; 0.168 µL/min/pmol
CS(=O)(=O)c1ccc(-c2cnc(N)c(-c3ccc(C(F)(F)F)nc3)c2)cc1 [MMV048]; 0.13 µL/min/pmol
COc1ccc2nc3cc(Cl)ccc3c(Nc3cc(CN4CCCC4)c(O)c(CN4CCCC4)c3)c2n1 [Pyronaridine, pyronaridine]; 0.42 µL/min/pmol
Clc1ccc2c(N3CCN(CCCN4CCN(c5ccnc6cc(Cl)ccc56)CC4)CC3)ccnc2c1 [Piperaquine, piperaquine]; 25.3 µL/min/pmol

Please look at the following compound next.
[in] Which CLint CYP3A4 is reported for this compound? CCCCN(CCCC)CC(O)c1cc(Cl)cc2c1-c1ccc(Cl)cc1/C2=C/c1ccc(Cl)cc1 (centres unmarked) [Lumefantrine, lumefantrine]
[out] 0.9 µL/min/pmol

====

Item-by-item account of microsomal CLint
test: Hepatic / HLM intrinsic clearance, enzyme not defined; details: human, liver microsomes

CCc1nc(N)nc(N)c1-c1ccc(Cl)cc1 [Pyrimethamine, pyrimethamine]; 1.8 µL/min/mg

Please look at the following molecule next.
[in] Which microsomal CLint is reported for this molecule? Clc1ccc2c(N3CCN(CCCN4CCN(c5ccnc6cc(Cl)ccc56)CC4)CC3)ccnc2c1 [Piperaquine, piperaquine]
[out] 31.6 µL/min/mg

====

molecular target: CYP3A4 (Homo sapiens, UniProt P08684); assay: in vitro
measured_metric: kinact (s⁻¹)
The reply should contain only the number, in s⁻¹.

[in] Enter reported kinact observed with CYP3A4 (Homo sapiens, UniProt P08684) for Clc1ccc2c(N3CCN(CCCN4CCN(c5ccnc6cc(Cl)ccc56)CC4)CC3)ccnc2c1 [Piperaquine, piperaquine]
[out] 0.000347

====

test: Fraction unbound in human liver microsomes (fumic); details: extrapolated from value measured at 0.4 mg/mL to 0.1 mg/mL, method of Austin et al., 2002
Item-by-item account of fumic
Please reply with the number alone, leaving off any unit.

Examples with answers:
Cc1cc(Nc2ccc(S(F)(F)(F)(F)F)cc2)n2nc(C(C)(F)F)nc2n1; 0.61
COc1cc(NC(C)CCCN)c2ncccc2c1 (centres unmarked); 0.84
[H]/N=C(\N/C(=N/[H])Nc1ccc(Cl)cc1)NC(C)C; 0.66
CC1(C)N=C(N)N=C(N)N1c1ccc(Cl)cc1; 0.911

[in] Which fumic is reported for this compound? C[C@H]1[C@@H](O)O[C@@H]2O[C@@]3(C)CC[C@H]4[C@H](C)CC[C@@H]1[C@@]24OO3 [DHA, dihydroartemisinin]
[out] 0.964

====

assay: in vitro; conditions: human, plasma
measured_metric: fraction unbound
Please reply with the number alone, leaving off any unit.

COc1ccc2nc3cc(Cl)ccc3c(Nc3cc(CN4CCCC4)c(O)c(CN4CCCC4)c3)c2n1; 0.058

[in] Which fraction unbound is reported for this compound? CCNCc1cc(Nc2ccnc3cc(Cl)ccc23)ccc1O
[out] 0.26

[in] Which fraction unbound is reported for this compound? Clc1ccc2c(N3CCN(CCCN4CCN(c5ccnc6cc(Cl)ccc56)CC4)CC3)ccnc2c1
[out] 0.006

====

biological target: CYP2D6 (Homo sapiens); experiment: CYP2D6 inhibition
Sequence (P10635 whole entry): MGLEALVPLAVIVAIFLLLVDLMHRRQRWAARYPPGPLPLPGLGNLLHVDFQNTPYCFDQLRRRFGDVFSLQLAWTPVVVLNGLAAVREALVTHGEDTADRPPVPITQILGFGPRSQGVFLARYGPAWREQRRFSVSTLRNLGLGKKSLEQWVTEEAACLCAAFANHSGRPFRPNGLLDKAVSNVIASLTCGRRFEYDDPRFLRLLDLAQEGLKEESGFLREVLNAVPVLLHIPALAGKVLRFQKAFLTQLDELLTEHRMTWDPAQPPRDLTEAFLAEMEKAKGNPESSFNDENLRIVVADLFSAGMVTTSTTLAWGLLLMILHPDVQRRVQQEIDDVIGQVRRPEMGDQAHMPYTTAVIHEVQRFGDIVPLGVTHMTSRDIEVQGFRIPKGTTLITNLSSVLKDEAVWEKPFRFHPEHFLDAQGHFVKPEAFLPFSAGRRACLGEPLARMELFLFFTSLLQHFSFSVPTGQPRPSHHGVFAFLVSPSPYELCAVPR
measured_metric: Ki
Param answer (str): number followed by unit.

[in] Which Ki is reported for this molecule? CCN(CC)Cc1cc(Nc2ccnc3cc(Cl)ccc23)ccc1O
[out] 0.45 µM

====

test: In vitro flags for victim and perpetrator properties conferring DDI liability; assay type: in vitro ADME, human; details: in vitro flag, mainly based on in vitro determinations
measured_metric: Risk as a perpetrator

[H]/N=C(\N/C(=N/[H])Nc1ccc(Cl)cc1)NC(C)C; CYP2D6 inhibitor
C=C[C@H]1C[N@@]2CC[C@H]1C[C@H]2[C@H](O)c1ccnc2ccc(OC)cc12; CYP2D6 inhibitor
